Target: T1, soluble CD4 (human, UniProt P01730 26-396)
T1 construct: extracellular domain
Assay: competitive ELISA against biotinylated mB-F5 on coated soluble CD4, 37 C 2 hours
Experimental: Culture supernatants of transfectomas producing the four versions of hB-F5 were collected, and concentrated. The different antibodies were purified from culture supernatants by affinity chromatography using protein A Sepharose and assessed for their CD4 binding activity by measuring, by means of competitive ELISA, their inhibitory activities against the binding of biotinylated mB-F5 to soluble CD4 coated on microtiter plates. Incubation time is 2 hours for 37 C and overnight for 4 C.
MEASUREMENT TYPE: Relative binding activity (% of mB-F5)

[ask] // query Relative binding activity (% of mB-F5) value for entry humanized B-F5 version H37L/L4L (antibody, V domains shown, also called hB-F5; H37L/L4L IgG1) VH: EEQLVESGGGLVKPGGSLRLSCAASGFSFSDCRMYWLRQAPGKGLEWIGVISVKSENYGANYAESVRGRFTISRDDSKNTVYLQMNSLKTEDTAVYYCSASYYRYDVGAWFAYWGQGTLVTVSS VL: DIVLTQSPDSLAVSLGERATINCRASKSVSTSGYSYIYWYQQKPGQPPKLLIYLASILESGVPDRFSGSGSGTDFTLTISSLQAEDVAVYYCQHSRELPWTFGQGTKVEIK
[reply] 30 % of mB-F5

[ask] // query Relative binding activity (% of mB-F5) value for entry humanized B-F5 version H37L/L4M (antibody, IgG1, V domains shown, also called hB-F5; H37L/L4M IgG1) VH: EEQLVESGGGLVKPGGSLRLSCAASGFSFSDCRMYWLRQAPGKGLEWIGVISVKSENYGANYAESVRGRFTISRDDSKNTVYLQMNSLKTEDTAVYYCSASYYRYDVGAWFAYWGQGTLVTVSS VL: DIVMTQSPDSLAVSLGERATINCRASKSVSTSGYSYIYWYQQKPGQPPKLLIYLASILESGVPDRFSGSGSGTDFTLTISSLQAEDVAVYYCQHSRELPWTFGQGTKVEIK
[reply] 30 % of mB-F5

[ask] // query Relative binding activity (% of mB-F5) value for entry humanized B-F5 version H37V/L4L (antibody, V domains shown, also called hB-F5) VH: EEQLVESGGGLVKPGGSLRLSCAASGFSFSDCRMYWVRQAPGKGLEWIGVISVKSENYGANYAESVRGRFTISRDDSKNTVYLQMNSLKTEDTAVYYCSASYYRYDVGAWFAYWGQGTLVTVSS VL: DIVLTQSPDSLAVSLGERATINCRASKSVSTSGYSYIYWYQQKPGQPPKLLIYLASILESGVPDRFSGSGSGTDFTLTISSLQAEDVAVYYCQHSRELPWTFGQGTKVEIK
[reply] 10 % of mB-F5

FYI, the data here is from patent US20090208496A1.
